SYSTEM NAME: IDH1 R132H (Homo sapiens, UniProt O75874, R132H)
Sequence (O75874 whole entry R132H): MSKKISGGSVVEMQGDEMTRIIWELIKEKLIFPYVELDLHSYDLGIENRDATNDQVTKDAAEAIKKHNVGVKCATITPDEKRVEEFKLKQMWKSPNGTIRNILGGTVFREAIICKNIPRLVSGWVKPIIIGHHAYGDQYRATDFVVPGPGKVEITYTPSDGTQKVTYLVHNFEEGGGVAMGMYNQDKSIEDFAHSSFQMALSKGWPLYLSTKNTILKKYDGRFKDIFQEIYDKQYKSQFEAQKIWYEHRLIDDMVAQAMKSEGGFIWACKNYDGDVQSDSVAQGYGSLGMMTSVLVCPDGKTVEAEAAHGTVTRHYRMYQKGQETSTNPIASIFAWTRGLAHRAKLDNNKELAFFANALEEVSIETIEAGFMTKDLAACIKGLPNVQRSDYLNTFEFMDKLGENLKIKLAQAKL
PROCEDURE DETAILS: Enzymatic inhibition assay, mutant IDH1 R132H (NADPH depletion coupled to diaphorase/resazurin)
RUN PARAMETERS: IDH1 R132H enzyme, IC50 class
Protocol: Assays were conducted in a 1536-well black solid-bottom plate with a final assay volume of 9 μL. Specifically, for IDH1 R132H, 3 μL of enzyme (4 mM β-ME, 0.0005 mg/mL IDH1 R132H, 150 mM NaCl, 20 mM Tris pH 7.5, 10 mM MgCl2, 0.05% BSA) were added to the plate, followed by the addition of 23 nL of test compound in DMSO. […]
This section presents molecules with their documented IC50 values.

[
  {
    "MOLECULE": "CCOc1ccc(Cl)cc1-n1c(C=C(C)C)c(C(=O)N2CC3CCC(C2)N3)cc(-c2nc(-c3ccc(Cl)cc3)cs2)c1=O (single isomer, unassigned) [Compound 113-1]",
    "IC50": "< 300 nM"
  },
  {
    "MOLECULE": "CCOc1ccc(C#N)cc1-n1c(C=C(C)C)c(C(=O)N2CC3CCC(C2)N3)cc(-c2nc(-c3ccc(Cl)cc3)cs2)c1=O",
    "IC50": "< 300 nM"
  },
  {
    "MOLECULE": "CCOc1ccc(Cl)c(-n2c(C=C(C)C)c(C(=O)N3CC4CCC(C3)N4)cc(-c3nc(-c4ccc(Cl)cc4)cs3)c2=O)c1 (single isomer, unassigned) [Compound 126-1]",
    "IC50": "< 300 nM"
  },
  {
    "MOLECULE": "CNc1ccc(Cl)c(-n2c(C=C(C)C)c(C(=O)N3C[C@H]4CC[C@@H](C3)N4)cc(-c3nc(-c4ccc(Cl)cc4)cs3)c2=O)c1",
    "IC50": "< 300 nM"
  },
  {
    "MOLECULE": "CCc1cccc(CC)c1-n1c(C=C(C)C)c(C(=O)N2CCN[C@@H](C)C2)cc(-c2nc(-c3ccc(C(F)F)cc3)cs2)c1=O",
    "IC50": "< 300 nM"
  },
  {
    "MOLECULE": "CCc1ccc(OC)cc1-n1c(C=C(C)C)c(C(=O)N2C[C@H]3CC[C@@H](C2)N3)cc(-c2nc(-c3ccc(Cl)cc3)cs2)c1=O (single isomer, unassigned) [Compound 114-2]",
    "IC50": "300 to 1000 nM"
  }
]
